- test_system: CMKLR1 (recombinant, species not given)
- test_protocol: cell-based or functional assay
Non-standard residues stand in square brackets, D forms with d. No end group written: not given here. Tic = O=C(O)[C@@H]1Cc2ccccc2CN1
Assign TRUE whenever CMKLR1 canonical Gαi signal transduction, EC50 (no wash) does not fall below 0.02 µM; assign FALSE whenever it does.

binder="[dY]FLP[dS]QF[dA][Tic]S (also: C16:1 lipid tail, linker and attachment not given here) [C16:1 lipidated stable chemerin 9 analog]" group_label=FALSE
binder="[dY]FLP[dS]QF[dA][Tic]S [s-Stable Chem (soluble stable chemerin peptide)]" group_label=TRUE
binder="[dY]FLP[dS]QF[dA][Tic]S (also: C18:1 lipid tail (which C18:1 acid not given here), linker and attachment not given here) [C18:1 lipidated stable chemerin 9 analog]" group_label=FALSE
binder="[dY]FLP[dS]QF[dA][Tic]S (also: C14:1 lipid tail, linker and attachment not given here) [C14:1 lipidated stable chemerin 9 analog]" group_label=FALSE
binder="[dY]FLP[dS]QF[dA][Tic]S (also: C18:3 (linolenic acid) lipid tail, linker and attachment not given here) [C18:3 lipidated stable chemerin 9 analog]" group_label=TRUE
binder="[dY]FLP[dS]QF[dA][Tic]S (also: C10 lipid tail, linker and attachment not given here) [C10 lipidated stable chemerin 9 analog]" group_label=FALSE
binder="[dY]FLP[dS]QF[dA][Tic]S (also: C16 (palmitic acid) lipid tail, linker and attachment not given here) [C16 lipidated stable chemerin 9 analog]" group_label=FALSE
binder="[dY]FLP[dS]QF[dA][Tic]S (also: C4 lipid tail, linker and attachment not given here) [C4 lipidated stable chemerin 9 analog]" group_label=TRUE
binder="[dY]FLP[dS]QF[dA][Tic]S (also: cholesterol lipid tail, linker and attachment not given here) [Cholesterol lipidated stable chemerin 9 analog]" group_label=TRUE
